- measured_target: CDK2 (human) (UniProt P24941)
- assay_summary: Enzyme Assay
measurement_label: IC50 (nM)
# unit: nM | format: bare number

Prompt: # get_value(readout= IC50, system= CDK2 (human) (UniProt P24941)) for `CCn1cnc2c(NCc3ccc(Cl)cc3)nc(N[C@H]3CCCC[C@H]3N)nc21`
Completion: 100

The values you see were collected from the Kinase Knowledgebase extract (Sharma et al. 2016).
